Test system: Tetranychus cinnabarinus
procedureText: Acaricidal activity against larvae of Tetranychus cinnabarinus (carmine spider mite) in sieva bean leaves assessed as mortality at 10 mg/kg at 25 +/-1 degC treated for 3 secs measured after 4 days
Format: functional
details: 96 h
Would you mind telling me the reported mortality at 10 mg/kg of each entry?
Numbers only, in %.

Take a look at these entries with their results.
Task item: What measured mortality at 10 mg/kg is associated with "Cc1cc(C)c(C2=C(OC(=O)C(=O)N(C)c3ccccc3)C3(CCCC3)OC2=O)c(C)c1" on Tetranychus cinnabarinus?
Reply: 80

Task item: Param readout= mortality at 10 mg/kg; system= Tetranychus cinnabarinus; entry= "CCN(C(=O)C(=O)OC1=C(c2c(C)cc(C)cc2C)C(=O)OC12CCCC2)c1ccc(C(F)(F)F)cc1" ; returns value.
Reply: 100

Task item: Notebook: pull reported mortality at 10 mg/kg for Tetranychus cinnabarinus, entry "CCOC(=O)C(=O)OC1=C(c2c(C)cc(C)cc2C)C(=O)OC12CCCC2"
Reply: 50

I would be grateful if you could provide mortality at 10 mg/kg for each of the following entries.
1. C#CCOC(=O)C(=O)OC1=C(c2c(C)cc(C)cc2C)C(=O)OC12CCCC2
2. Cc1cc(C)c(C2=C(OC(=O)C(=O)Oc3ccc(C(C)(C)C)cc3)C3(CCCC3)OC2=O)c(C)c1
3. Cc1cc(C)c(C2=C(OC(=O)C(=O)N(C(C)C)C(C)C)C3(CCCC3)OC2=O)c(C)c1
4. CCN(C(=O)C(=O)OC1=C(c2c(C)cc(C)cc2C)C(=O)OC12CCCC2)c1ccc(Br)cc1
5. CCN(C(=O)C(=O)OC1=C(c2c(C)cc(C)cc2C)C(=O)OC12CCCC2)c1ccc(C)cc1C
6. CCN(CC)C(=O)C(=O)OC1=C(c2c(C)cc(C)cc2C)C(=O)OC12CCCC2

Reply:
1. 30
2. 100
3. 100
4. 100
5. 100
6. 100

====

Please go through the items and note down their mortality at 600 mg/kg.
Test system: Ostrinia nubilalis
procedureText: Stomach toxicity against third-instar larval stage of Ostrinia nubilalis (European corn borer) in corn leaves assessed as mortality at 600 mg/kg at 25 +/-1 degC treated for 3-5 secs before larval infestation after 4 days by leaf-dip method
Type: functional
details: 96 h
One number for each entry, in %.

# return mortality at 600 mg/kg for each item in the list
1. Cc1cc(C)c(C2=C(OC(=O)C(=O)Oc3ccccc3)C3(CCCC3)OC2=O)c(C)c1
2. Cc1cc(C)c(C2=C(OC(=O)C(=O)N(C)c3ccccc3)C3(CCCC3)OC2=O)c(C)c1
3. CCN(C(=O)C(=O)OC1=C(c2c(C)cc(C)cc2C)C(=O)OC12CCCC2)c1ccc(C)cc1C
4. CCN(C(=O)C(=O)OC1=C(c2c(C)cc(C)cc2C)C(=O)OC12CCCC2)c1ccc(C(F)(F)F)cc1
5. CCN(C(=O)C(=O)OC1=C(c2c(C)cc(C)cc2C)C(=O)OC12CCCC2)c1ccc(Br)cc1
6. CCOC(=O)C(=O)OC1=C(c2c(C)cc(C)cc2C)C(=O)OC12CCCC2

Reply:
1. 60
2. 30
3. 20
4. 30
5. 40
6. 20

====

Please go through the items and note down their mortality at 5 mg/kg.
Test system: Tetranychus cinnabarinus
procedureText: Acaricidal activity against eggs of Tetranychus cinnabarinus (carmine spider mite) in sieva bean leaves assessed as mortality at 5 mg/kg at 25 +/-1 degC treated for 3 secs measured after 4 days
Format: functional
details: 96 h
Numbers only, in %.

Task item: Look up mortality at 5 mg/kg for this compound: "Cc1cc(C)c(C2=C(OC(=O)C(=O)Oc3ccc(Cl)cc3)C3(CCCC3)OC2=O)c(C)c1"
Reply: 100

Count: 3. Required value per item: mortality at 5 mg/kg.
1. Cc1cc(C)c(C2=C(OC(=O)C(=O)N3CCCC3)C3(CCCC3)OC2=O)c(C)c1
2. Cc1cc(C)c(C2=C(OC(=O)CC(C)(C)C)C3(CCCC3)OC2=O)c(C)c1
3. CCN(CC)C(=O)C(=O)OC1=C(c2c(C)cc(C)cc2C)C(=O)OC12CCCC2

Reply:
1. 70
2. 100
3. 100

Task item: What value of mortality at 5 mg/kg has been reported for the following compound? "CCN(C(=O)C(=O)OC1=C(c2c(C)cc(C)cc2C)C(=O)OC12CCCC2)c1ccc(C(F)(F)F)cc1"
Reply: 100
